Notes on AC50 obtained with D(3) dopamine receptor (Homo sapiens).
Sequence (P35462 whole entry): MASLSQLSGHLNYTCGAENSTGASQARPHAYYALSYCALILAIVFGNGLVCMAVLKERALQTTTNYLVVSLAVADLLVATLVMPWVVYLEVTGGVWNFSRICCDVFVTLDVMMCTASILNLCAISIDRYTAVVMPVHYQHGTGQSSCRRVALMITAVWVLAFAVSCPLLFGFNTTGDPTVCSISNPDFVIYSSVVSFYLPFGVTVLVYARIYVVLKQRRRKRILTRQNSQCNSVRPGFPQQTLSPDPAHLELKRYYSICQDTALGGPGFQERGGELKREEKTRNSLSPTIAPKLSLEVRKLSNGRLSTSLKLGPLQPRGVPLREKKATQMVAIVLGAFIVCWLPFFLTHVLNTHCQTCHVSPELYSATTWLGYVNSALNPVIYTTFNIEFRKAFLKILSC
Quick reminder: number only, in µM, skip the unit.

{"compound": "CCN(CC)CCOC(=O)C(Cc1cccc2ccccc12)CC1CCCO1 (stereo not drawn)", "AC50 (µM)": 10.1}
{"compound": "CCSc1ccc2c(c1)N(CCCN1CCN(C)CC1)c1ccccc1S2", "AC50 (µM)": 0.0031}

Measured AC50 of CNC[C@H](O)c1cccc(O)c1 : 4.68

Record CN1CCN(CCCN2c3ccccc3Sc3ccc(S(=O)(=O)N(C)C)cc32)CC1 , field AC50: 0.003

---

Test system Melanocortin receptor 4 (Homo sapiens, UniProt P32245), AC50 listed for each of the compounds. Also: assay procedure not described here.

Take a look at these entries with their results.
{"compound": "OCCN1CCN(CC/C=C2/c3ccccc3Sc3ccc(Cl)cc32)CC1", "reported.value": "> 10 µM"}
{"compound": "CC1(C)C(C=C(Cl)Cl)C1C(=O)OCc1cccc(Oc2ccccc2)c1 (stereo unspecified)", "reported.value": "> 10 µM"}
{"compound": "NS(=O)(=O)c1cc2c(cc1C(F)(F)F)NC(Cc1ccccc1)NS2(=O)=O (stereo unspecified) [BENDROFLUMETHIAZIDE]", "reported.value": "> 10 µM"}
{"compound": "CCCN(CCC)CCc1cccc2c1CC(=O)N2", "reported.value": "> 30 µM"}
{"compound": "CC(=O)Nc1c(I)c(C(=O)N[C@H]2C(O)O[C@H](CO)[C@@H](O)[C@@H]2O)c(I)c(N(C)C(C)=O)c1I (stereo partly specified) [METRIZAMIDE]", "reported.value": "> 10 µM"}

From here, focus on the item given below.
CNC[C@H](O)c1cccc(O)c1 on Melanocortin receptor 4 (Homo sapiens, UniProt P32245) gives AC50 = > 30 µM

---

Endpoint: AC50. System: Melanocortin receptor 4 (Homo sapiens, UniProt P32245). Items follow. Also: assay procedure not described here.
Sequence (P32245 whole entry): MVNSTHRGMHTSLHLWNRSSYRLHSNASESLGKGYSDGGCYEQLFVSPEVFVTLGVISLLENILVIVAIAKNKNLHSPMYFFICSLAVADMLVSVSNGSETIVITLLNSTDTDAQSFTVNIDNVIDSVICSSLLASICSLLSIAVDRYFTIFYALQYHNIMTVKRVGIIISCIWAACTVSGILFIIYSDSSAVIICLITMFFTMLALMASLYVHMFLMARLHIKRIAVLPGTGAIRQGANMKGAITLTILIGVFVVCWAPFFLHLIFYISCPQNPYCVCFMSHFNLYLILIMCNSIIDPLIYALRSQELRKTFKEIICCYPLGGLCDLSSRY

// below: answered compounds
{"compound": "COC(=O)[C@H](c1ccccc1Cl)N1CCc2sccc2C1 [CLOPIDOGREL]", "AC50": "> 30 µM"}
{"compound": "CN1C[C@H](C(=O)N[C@]2(C)O[C@@]3(O)[C@@H]4CCCN4C(=O)[C@H](Cc4ccccc4)N3C2=O)C[C@@H]2c3cccc4[nH]cc(c34)C[C@H]21 [DIHYDROERGOTAMINE]", "AC50": "> 30 µM"}

Moving on to another compound below.
Given the compound CC1(C)S[C@@H]2[C@H](NC(=O)[C@H](N)c3ccc(O)cc3)C(=O)N2[C@H]1C(=O)O [AMOXICILLIN] and test system Melanocortin receptor 4 (Homo sapiens, UniProt P32245), the measured AC50 is > 30 µM

---

Entries below carry reported AC50 on Delta-type opioid receptor (Homo sapiens, UniProt P41143).
Sequence (P41143 whole entry): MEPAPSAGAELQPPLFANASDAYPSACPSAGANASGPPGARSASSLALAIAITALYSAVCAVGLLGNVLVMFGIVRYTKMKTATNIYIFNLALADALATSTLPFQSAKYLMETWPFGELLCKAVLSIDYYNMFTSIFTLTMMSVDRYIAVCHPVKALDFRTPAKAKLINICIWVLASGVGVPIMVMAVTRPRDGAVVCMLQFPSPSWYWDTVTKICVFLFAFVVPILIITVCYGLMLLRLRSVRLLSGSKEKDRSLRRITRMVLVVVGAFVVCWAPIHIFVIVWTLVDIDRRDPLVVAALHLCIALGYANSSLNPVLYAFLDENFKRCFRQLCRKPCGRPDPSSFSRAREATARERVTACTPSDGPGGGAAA

{"molecule": "CN1CCN(c2c(F)cc3c(=O)c(C(=O)O)cn4c3c2SCC4)CC1 [RUFLOXACIN]", "measured.target": "Delta-type opioid receptor (Homo sapiens, UniProt P41143)", "AC50": "> 30 µM"}
{"molecule": "CC(=O)Nc1c(I)c(C(=O)N[C@H]2C(O)O[C@H](CO)[C@@H](O)[C@@H]2O)c(I)c(N(C)C(C)=O)c1I (stereo partly drawn) [METRIZAMIDE]", "measured.target": "Delta-type opioid receptor (Homo sapiens, UniProt P41143)", "AC50": "> 30 µM"}
{"molecule": "CN(C)c1cc(CNCC(C)(C)C)c(O)c2c1C[C@H]1C[C@H]3[C@H](N(C)C)C(O)=C(C(N)=O)C(=O)[C@@]3(O)C(O)=C1C2=O [OMADACYCLINE]", "measured.target": "Delta-type opioid receptor (Homo sapiens, UniProt P41143)", "AC50": "27 µM"}
{"molecule": "CC1(C)C(C=C(Cl)Cl)C1C(=O)OCc1cccc(Oc2ccccc2)c1 (stereo not drawn) [PERMETHRIN]", "measured.target": "Delta-type opioid receptor (Homo sapiens, UniProt P41143)", "AC50": "> 30 µM"}

AC50 reported for this molecule O=C(CCCN1CCC(n2c(O)nc3ccccc32)CC1)c1ccc(F)cc1 [BENPERIDOL] : > 30 µM

Consider COC1=C(OC)C(=O)C(CCCCCCCCCCO)=C(C)C1=O [IDEBENONE] . Its measured AC50 is > 10 µM

---

Here we list compounds with their recorded AC50 when tested on UniProtKB P37288.
Sequence (P37288 whole entry): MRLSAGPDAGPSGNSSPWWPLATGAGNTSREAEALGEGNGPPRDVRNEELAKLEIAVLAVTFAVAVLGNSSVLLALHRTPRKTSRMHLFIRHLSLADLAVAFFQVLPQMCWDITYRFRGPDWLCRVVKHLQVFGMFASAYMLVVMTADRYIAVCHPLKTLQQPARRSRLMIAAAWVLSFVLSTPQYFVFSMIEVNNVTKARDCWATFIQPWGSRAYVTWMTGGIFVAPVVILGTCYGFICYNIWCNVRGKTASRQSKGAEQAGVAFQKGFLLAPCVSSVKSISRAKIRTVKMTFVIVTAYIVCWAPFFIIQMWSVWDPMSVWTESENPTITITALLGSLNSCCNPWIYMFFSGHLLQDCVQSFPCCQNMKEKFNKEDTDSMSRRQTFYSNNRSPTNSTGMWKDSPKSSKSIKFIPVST

Answered examples (4):
{"compound": "COC(=O)[C@H](c1ccccc1Cl)N1CCc2sccc2C1 [CLOPIDOGREL]", "AC50": "> 30 µM"}
{"compound": "CCCCC1(CC)C(=O)NC(=O)NC1=O [BUTETHAL]", "AC50": "> 30 µM"}
{"compound": "O=C(CCCN1CCC(n2c(O)nc3ccccc32)CC1)c1ccc(F)cc1 [BENPERIDOL]", "AC50": "> 30 µM"}
{"compound": "N=C(N)NCCCCCCC(=O)NC(O)C(=O)NCCCCNCCCN (stereo not given)", "AC50": "> 30 µM"}

Form field, AC50 with UniProtKB P37288, item O=C1CN=C(c2ccccc2)c2cc(Cl)ccc2N1 [NORDAZEPAM] : > 10 µM

---

Test system Neuronal acetylcholine receptor subunit alpha-4 (Homo sapiens), AC50 listed for each of the compounds. Also: assay procedure not described here.

{"compound": "CNCC[C@@H](Oc1ccccc1C)c1ccccc1", "measured.target": "Neuronal acetylcholine receptor subunit alpha-4 (Homo sapiens)", "AC50": "> 30 µM"}
{"compound": "CCOC(=O)Nc1ccc2c(c1)N(C(=O)CCN1CCOCC1)c1ccccc1S2", "measured.target": "Neuronal acetylcholine receptor subunit alpha-4 (Homo sapiens)", "AC50": "> 30 µM"}
{"compound": "CCCC[C@H](C)C[C@H](O)/C=C/[C@H]1[C@H](O)CC(=O)[C@@H]1CCCC/C=C/C(=O)O", "measured.target": "Neuronal acetylcholine receptor subunit alpha-4 (Homo sapiens)", "AC50": "> 30 µM"}
{"compound": "Clc1ccc2c(c1)C(c1ccccc1)=NCc1nncn1-2", "measured.target": "Neuronal acetylcholine receptor subunit alpha-4 (Homo sapiens)", "AC50": "> 10 µM"}
{"compound": "CC(C)(C)NC[C@H](O)COc1nsnc1N1CCOCC1", "measured.target": "Neuronal acetylcholine receptor subunit alpha-4 (Homo sapiens)", "AC50": "> 30 µM"}

Form field AC50 for item CC(NCCc1ccc(O)cc1)C(O)c1ccc(O)cc1 (stereo unspecified) on Neuronal acetylcholine receptor subunit alpha-4 (Homo sapiens): > 30 µM

Bench note, Neuronal acetylcholine receptor subunit alpha-4 (Homo sapiens): Cc1cccc(N(C)C(=S)Oc2ccc3ccccc3c2)c1 [TOLNAFTATE] , AC50 reads > 10 µM

Query CCCN(CC)C(CC)C(=O)Nc1c(C)cccc1C (stereo unspecified) on Neuronal acetylcholine receptor subunit alpha-4 (Homo sapiens); AC50 returned: > 30 µM

---

Entries and their AC50
# measured.target: UniProtKB P32238
# Sequence (P32238 whole entry): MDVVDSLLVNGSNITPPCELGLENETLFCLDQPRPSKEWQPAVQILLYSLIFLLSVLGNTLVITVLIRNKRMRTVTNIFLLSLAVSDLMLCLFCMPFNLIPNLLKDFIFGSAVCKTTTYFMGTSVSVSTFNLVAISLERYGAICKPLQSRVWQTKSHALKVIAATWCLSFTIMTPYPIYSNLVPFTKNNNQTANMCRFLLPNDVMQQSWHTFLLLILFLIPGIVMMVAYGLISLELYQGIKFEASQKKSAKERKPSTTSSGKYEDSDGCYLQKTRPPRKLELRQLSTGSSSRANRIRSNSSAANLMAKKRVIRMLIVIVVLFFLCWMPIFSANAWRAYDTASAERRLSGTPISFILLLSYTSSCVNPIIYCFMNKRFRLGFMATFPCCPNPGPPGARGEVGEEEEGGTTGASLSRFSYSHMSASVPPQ

As a guide, the following entries are already answered.
{"molecule": "CCOc1cc(CC(=O)N[C@@H](CC(C)C)c2ccccc2N2CCCCC2)ccc1C(=O)O [REPAGLINIDE]", "reported.value": "> 30 µM"}
{"molecule": "C[C@]1(COc2ccc(N3CCC(Oc4ccc(OC(F)(F)F)cc4)CC3)cc2)Cn2cc([N+](=O)[O-])nc2O1", "reported.value": "> 30 µM"}
{"molecule": "CCC(=O)OCC(=O)[C@@]1(OC(=O)CC)[C@@H](C)C[C@H]2[C@@H]3CCC4=CC(=O)C=C[C@]4(C)[C@@]3(F)[C@@H](O)C[C@@]21C [BETAMETHASONE DIPROPIONATE]", "reported.value": "> 30 µM"}
{"molecule": "COC1=C(OC)C(=O)C(CCCCCCCCCCO)=C(C)C1=O", "reported.value": "> 30 µM"}
{"molecule": "NC(=O)CCC/N=C(\\c1ccc(Cl)cc1)c1cc(F)ccc1O [PROGABIDE]", "reported.value": "> 10 µM"}
{"molecule": "NS(=O)(=O)c1cc2c(cc1C(F)(F)F)NC(Cc1ccccc1)NS2(=O)=O (configuration not stated) [BENDROFLUMETHIAZIDE]", "reported.value": "> 10 µM"}

For this molecule ( CC(C)=CCOc1ccc(/C=C/C(=O)c2ccc(OCC=C(C)C)cc2OCC(=O)O)cc1 ), measured AC50 is > 30 µM

Sample CN1[C@@H]2CC[C@H]1C[C@@H](OC(=O)c1c[nH]c3ccccc13)C2 ; AC50 observed: > 10 µM

get_value(item= CC(=O)O[C@H]1C[C@@H]2CC[C@@H]3[C@H](CC[C@@]4(C)[C@H]3C[C@H]([N+]3(C)CCCCC3)[C@@H]4OC(C)=O)[C@@]2(C)C[C@@H]1[N+]1(C)CCCCC1 , readout=AC50) returns > 10 µM

For this molecule ( CCCCC1(CC)C(=O)NC(=O)NC1=O ), measured AC50 is > 30 µM

The molecule identified as Nc1ccc(C(=O)O)c(O)c1 registered its AC50 at > 30 µM

AC50 recorded for this molecule, CO[C@@]1(NC(=O)Cc2cccs2)C(=O)N2C(C(=O)O)=C(COC(N)=O)CS[C@@H]21 , is > 30 µM
